Source: paper PMC5428354

- targetDesc: DPP4 (Homo sapiens)
- Sequence (P27487 whole entry): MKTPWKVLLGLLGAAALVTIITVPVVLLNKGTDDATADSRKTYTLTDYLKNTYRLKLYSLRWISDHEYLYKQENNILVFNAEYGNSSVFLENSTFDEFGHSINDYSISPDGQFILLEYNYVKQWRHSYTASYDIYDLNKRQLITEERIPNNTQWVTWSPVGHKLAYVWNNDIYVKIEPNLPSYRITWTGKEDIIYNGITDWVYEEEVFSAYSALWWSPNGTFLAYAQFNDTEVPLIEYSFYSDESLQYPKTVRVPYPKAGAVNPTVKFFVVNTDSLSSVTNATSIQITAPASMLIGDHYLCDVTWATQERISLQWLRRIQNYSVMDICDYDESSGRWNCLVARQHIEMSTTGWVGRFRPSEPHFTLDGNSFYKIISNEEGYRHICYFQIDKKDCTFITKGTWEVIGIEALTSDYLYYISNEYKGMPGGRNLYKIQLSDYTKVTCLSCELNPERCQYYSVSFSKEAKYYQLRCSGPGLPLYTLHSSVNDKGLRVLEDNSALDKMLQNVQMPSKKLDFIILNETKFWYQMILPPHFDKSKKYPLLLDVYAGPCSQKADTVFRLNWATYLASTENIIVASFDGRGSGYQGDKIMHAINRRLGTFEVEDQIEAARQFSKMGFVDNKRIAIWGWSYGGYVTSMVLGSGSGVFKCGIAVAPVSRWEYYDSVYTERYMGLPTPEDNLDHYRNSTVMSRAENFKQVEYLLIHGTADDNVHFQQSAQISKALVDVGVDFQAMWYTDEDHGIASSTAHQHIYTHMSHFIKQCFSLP
- testProtocol: DPP4 activity assay (DPP4 inhibitor screening assay kit, Cayman);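 also: fluorescence read at excitation 360 nm and emission 460 nm after the enzyme reaction ran 30 min at 37 °C in a 96-well plate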
- Assay type: biochemical
- Set-up: purchased Cayman Chemical, Ann Arbor, MI, USA
- conditionSummary: 0.5 h, 10 µM; control mean 100.0; Figure 1A raw data; read-out: DPP4 activity in library screen, Exp 3
Please respond with met when measured remaining activity at 10 µM is strictly beneath 80%, and with not met in all other cases.

compound: O=C(O)C1=C[C@@H](O)[C@@H](O)[C@H](O)C1
categoryLabel: not met
--
compound: OCc1c[nH]c2ccccc12
categoryLabel: not met
--
compound: O=[N+]([O-])c1ncc[nH]1
categoryLabel: met
--
compound: O=C1C[C@@H](c2ccc(O)cc2)Oc2cc(O)cc(O)c21
categoryLabel: not met
--
compound: O=C(O)Cc1c[nH]c2ccccc12
categoryLabel: not met
--
compound: OC[C@H]1O[C@@H](OCCc2ccc(O)cc2)[C@H](O)[C@@H](O)[C@@H]1O [Salidroside]
categoryLabel: not met
--
compound: C[C@@H]1O[C@@H](OC[C@H]2O[C@@H](Oc3c(-c4ccc(OCCO)c(OCCO)c4)oc4cc(OCCO)cc(O)c4c3=O)[C@H](O)[C@@H](O)[C@@H]2O)[C@H](O)[C@H](O)[C@H]1O
categoryLabel: met
--
compound: Nc1nc2c(ncn2[C@@H]2O[C@H](CO)[C@@H](O)[C@H]2O)c(=O)[nH]1
categoryLabel: not met
--
compound: COc1ccc2cc1Oc1ccc(cc1)C[C@H]1c3cc(c(OC)cc3CCN1C)Oc1c(OC)c(OC)cc3c1[C@H](C2)N(C)CC3
categoryLabel: not met
--
compound: O=C(/C=C/c1ccc(O)cc1)c1ccc(O)cc1O
categoryLabel: met
--
compound: COc1ccc([C@@]23Oc4cc(OC)cc(OC)c4[C@]2(O)[C@H](O)[C@H](C(=O)N(C)C)[C@H]3c2ccccc2)cc1 [Rocaglamide]
categoryLabel: not met
--
compound: COc1cc(O)c2c(c1)C(=O)c1cc(C)cc(O)c1C2=O
categoryLabel: met
--
compound: CC(C)Oc1ccc2c(=O)c(-c3ccccc3)coc2c1
categoryLabel: not met
--
compound: C=C[C@](C)(O)CC[C@@H]1[C@@]2(C)CCCC(C)(C)[C@@H]2CC[C@@]1(C)O
categoryLabel: met
--
compound: O=C(/C=C/c1ccc(O)c(O)c1)O[C@@H]1C[C@](O)(C(=O)O)C[C@@H](O)[C@H]1O
categoryLabel: not met
--
compound: CC1(C)[C@@H](O[C@H]2O[C@H](C(=O)O)[C@@H](O)[C@H](O)[C@H]2O[C@@H]2O[C@H](C(=O)O)[C@@H](O)[C@H](O)[C@H]2O)CC[C@]2(C)[C@H]3C(=O)C=C4[C@@H]5C[C@@](C)(C(=O)O)CC[C@]5(C)CC[C@@]4(C)[C@]3(C)CC[C@@H]12
categoryLabel: met
--
compound: C/C=C1/[C@H](O[C@@H]2O[C@H](CO)[C@@H](O)[C@H](O)[C@H]2O)OC=C(C(=O)OC)[C@H]1CC(=O)OCCc1ccc(O)c(O)c1
categoryLabel: not met
